meta.source: patent US20240327502A1

Below, each entry is listed alongside its reported Octet binding response.
Target: T1, Unprocessed hMPV PreF trimer (human metapneumovirus, strain B2)
T1 construct: also called Unprocessed hMPV WT PreF trimer; unprocessed hMPV PreF trimeric antigen
Test: BLI, mAb on anti-human Fc sensor
Please respond with the number in nm and leave the unit unwritten.

[
  {
    "binder": "M2C11 (antibody, V domains shown, IgG) VH: QVQLVQSGAEVRKPGASVKVSCKASGYTFTSHDINWVRQAPGQGLEWMGWMNPNSDTTGYAQKFQGRVTMARDISMSTAYMELSSLTSEDTAVYYCARGRHNYYTNGPTRDGFDIWGQGTMVTVSS VL: SYELTQPPSVSVSPGQTATITCSGDDLGNQYANWFQQRPGQSPVLVIYQDNKRPSGIPERFSGSSSGNTATLTISGTQPLDEADYYCQAWDSRTYVFGTGTKVTVL",
    "Octet binding response, nm": 0.349
  }
]

The binder M4B05 (antibody, V domains shown, IgG) VH: QVQLVQSGPEVRKPGASVIISCKASGYSFISYYIHWVRQAPGQGLEWMGIINPSGGSTEYAQKYQGRLTITRDTSTTTVSMTLSSLRSDDTAVYFCAREQAVGAYDIWGQGTMVTVSS VL: EIVLTQSPGTLSLSPGERATLSCRAGQLINGNYLAWYQKKPGQAPSLLIYDVSRRAAGVPDRFTGSGSGTDFTLTISRLEPDDFAVYYCQHYGRSPSPTFGGGTKVEIK showed Octet binding response equal to 0.281
